target: progesterone receptor (Homo sapiens, UniProt P06401); experiment: PR Human Progesterone NHR Binding (Agonist Radioligand) Assay, [3H]progesterone, T47D cytosolic fractions; settings: 0.5 nM [3H]progesterone, 1 hour at 4° C.
Sequence (P06401 679-933 limits assumed): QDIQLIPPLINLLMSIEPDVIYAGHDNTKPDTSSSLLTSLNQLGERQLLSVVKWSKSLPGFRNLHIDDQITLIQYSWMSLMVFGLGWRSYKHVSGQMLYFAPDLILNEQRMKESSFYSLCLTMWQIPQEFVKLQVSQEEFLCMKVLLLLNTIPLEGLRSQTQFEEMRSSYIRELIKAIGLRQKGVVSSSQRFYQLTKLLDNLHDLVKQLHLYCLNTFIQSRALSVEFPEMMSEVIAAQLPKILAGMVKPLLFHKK
pKi: −log10 of the molar value.
For each record, write down the corresponding pKi.

Here are 3 compounds together with their reported answers.
given smiles	measured
CCS(=O)(=O)Nc1ccc(Oc2cccc(CCOC3CCN(c4ncc(C(=O)N[C@H]5C(C)(C)[C@H](Oc6ccc(C#N)c(Cl)c6)C5(C)C)cn4)CC3)c2)c(-c2cn(C)c(=O)c3[nH]ccc23)c1	> 7.30
CCS(=O)(=O)c1ccc(Oc2cccc(OCCOC3CCN(c4ccc(C(=O)N[C@H]5C(C)(C)[C@H](Oc6ccc(C#N)c(Cl)c6)C5(C)C)cn4)CC3)c2F)c(-c2cn(C)c(=O)c3[nH]ccc23)c1	> 7.30
Cn1cc(-c2cc(C(C)(C)O)ccc2Oc2ccc(N3CC(CC4CCN(c5ncc(C(=O)N[C@H]6C(C)(C)[C@H](Oc7ccc(C#N)c(Cl)c7)C6(C)C)cn5)CC4)C3)cc2)c2cc[nH]c2c1=O	> 7.30

[in] Any idea what its pKi is? The compound is Cn1cc(-c2cc(C(C)(C)O)ccc2Oc2ccc(N3CC(CC4CCN(c5cnc(C(=O)N[C@H]6C(C)(C)[C@H](Oc7ccc(C#N)c(C(F)(F)F)c7)C6(C)C)cn5)CC4)C3)cc2)c2cc[nH]c2c1=O
[out] 5.60 to 6.30

====

target: BRD4-BD1 (Homo sapiens, UniProt O60885); assay: Binding affinity to BRD4-BD1 (bromoKdELECT assay); details: 11-point 3-fold dilution series
measured endpoint: Kd

Worked examples follow.
compound	Kd
Cn1cc(-c2cc(C(C)(C)O)ccc2Oc2cccc(N3CC(N4CCN(c5ncc(C(=O)N[C@H]6C(C)(C)[C@H](Oc7ccc(C#N)c(Cl)c7)C6(C)C)cn5)CC4)C3)c2)c2cc[nH]c2c1=O [Compound I-105]	500 to 2500 nM
CN(c1ccc(Oc2cccc(N3CC(N4CCN(c5ncc(C(=O)N[C@H]6C(C)(C)[C@H](Oc7ccc(C#N)c(Cl)c7)C6(C)C)cn5)CC4)C3)c2F)c(-c2cn(C)c(=O)c3[nH]ccc23)c1)S(=O)(=O)C1CC1 [Compound I-91]	50 to 500 nM
CCS(=O)(=O)Nc1ccc(OC(COCCOC2CCN(c3ncc(C(=O)N[C@H]4C(C)(C)[C@H](Oc5ccc(C#N)c(Cl)c5)C4(C)C)cn3)CC2)C2CC2)c(-c2cn(C)c(=O)c3[nH]ccc23)c1 (stereo partly shown) [Compound I-67]	50 to 500 nM

[in] Using the record for CCS(=O)(=O)Nc1ccc(Oc2cccc(OCCOC3CCN(c4ccc(C(=O)N[C@H]5C(C)(C)[C@H](Oc6ccc(C#N)c(Cl)c6)C5(C)C)nn4)CC3)c2)c(-c2cn(C)c(=O)c3[nH]ccc23)c1 [Compound I-11] , report its Kd.
[out] 50 to 500 nM

====

Hi there, I'd appreciate the recorded pKd for every entry that follows.
molecular target: BRD4-BD1 (Homo sapiens, UniProt O60885); assay: Binding affinity to BRD4-BD1 (bromoKdELECT assay); conditions: 11-point 3-fold dilution series
pKd: −log10 of the molar value.

Observe how each entry below is paired with its result.
molecule	measured
CCS(=O)(=O)N(C)c1ccc(Oc2cccc(OCCOC3CCN(c4ncc(C(=O)N[C@H]5C(C)(C)[C@H](Oc6ccc(C#N)c(Cl)c6)C5(C)C)cn4)CC3)c2)c(-c2cn(C)c(=O)c3[nH]ccc23)c1 [Compound I-52]	< 5.60
CCS(=O)(=O)c1ccc(Oc2cccc(OCCOC3CCN(c4ccc(C(=O)N[C@H]5C(C)(C)[C@H](Oc6ccc(C#N)c(Cl)c6)C5(C)C)cn4)CC3)c2F)c(-c2cn(C)c(=O)c3[nH]ccc23)c1 [Compound I-185]	6.30 to 7.30
CCS(=O)(=O)Nc1ccc(Oc2cccc(OCCOC3CCN(c4ncc(C(=O)N[C@H]5C(C)(C)[C@H](Oc6ccc(C#N)c(Cl)c6)C5(C)C)cn4)CC3)c2)c(-c2cn(C)c(=O)c3[nH]ccc23)c1 [Compound I-6]	< 5.60
Cn1cc(-c2cc(C(C)(C)O)ccc2Oc2cccc(N3CC(CC4CCN(c5ncc(C(=O)N[C@H]6C(C)(C)[C@H](Oc7ccc(C#N)c(Cl)c7)C6(C)C)cn5)CC4)C3)c2F)c2cc[nH]c2c1=O [Compound I-196]	6.30 to 7.30
CCS(=O)(=O)Nc1ccc(Oc2cccc(OCCOCCOCCOCCOCCN(C)c3ncc(C(=O)N[C@H]4C(C)(C)[C@H](Oc5ccc(C#N)c(Cl)c5)C4(C)C)cn3)c2)c(-c2cn(C)c(=O)c3[nH]ccc23)c1 [Compound I-3]	> 7.30
Cn1cc(-c2cc(C(C)(C)O)ccc2Oc2ccc(CCC3CCN(c4ncc(C(=O)N[C@H]5C(C)(C)[C@H](Oc6ccc(C#N)c(Cl)c6)C5(C)C)cn4)CC3)cc2)c2cc[nH]c2c1=O [Compound I-203]	< 5.60

Dear colleague, could you send me pKd for each of the items below? Thanks.
1. CN(c1ccc(Oc2cccc(OCCN3CCN(c4ncc(C(=O)N[C@H]5C(C)(C)[C@H](Oc6ccc(C#N)c(Cl)c6)C5(C)C)cn4)CC3)c2)c(-c2cn(C)c(=O)c3[nH]ccc23)c1)S(=O)(=O)C1CC1 [Compound I-95]
2. Cn1cc(-c2cc(C(C)(C)O)ccc2Oc2cccc(OCCN3CCN(c4ncc(C(=O)N[C@H]5C(C)(C)[C@H](Oc6ccc(C#N)c(Cl)c6)C5(C)C)cn4)CC3)c2F)c2cc[nH]c2c1=O [Compound I-99]
3. Cn1cc(-c2cc(N)ccc2Oc2cccc(OCCOC3CCN(c4ncc(C(=O)N[C@H]5C(C)(C)[C@H](Oc6ccc(C#N)c(Cl)c6)C5(C)C)cn4)CC3)c2)c2cc[nH]c2c1=O [Compound I-62]

[out]
5.60 to 6.30
5.60 to 6.30
< 5.60

Provenance of the data: patent US20250388605A1
